Hello, the source for this data is ChEMBL document CHEMBL5608259, in case you need it.

- experimental target: Protein arginine N-methyltransferase 6 (Homo sapiens)
- Sequence (Q96LA8 whole entry, looked up): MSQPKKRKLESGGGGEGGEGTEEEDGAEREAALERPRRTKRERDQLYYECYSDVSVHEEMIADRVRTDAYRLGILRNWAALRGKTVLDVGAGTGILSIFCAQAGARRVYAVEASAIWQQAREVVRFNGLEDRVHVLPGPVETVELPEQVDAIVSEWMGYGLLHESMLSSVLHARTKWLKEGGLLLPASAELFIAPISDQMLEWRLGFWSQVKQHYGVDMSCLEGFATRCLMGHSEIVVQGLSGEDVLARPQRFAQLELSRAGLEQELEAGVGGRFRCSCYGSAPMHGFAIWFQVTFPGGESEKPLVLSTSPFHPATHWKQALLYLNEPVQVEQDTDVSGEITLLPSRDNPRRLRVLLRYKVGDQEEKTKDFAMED
- assay summary: Inhibition of human PRMT6 using GST-GAR as substrate and SAM as cofactor at 10 uM by radiometric HotSpot assay relative to control
Activity calls are given as the source filed them. The calls are words filed in the database; no cut-off is given here.
measurement kind: inhibition

>>> print(df.to_string())
                               smiles_string  test_value
 0  Nc1ncnc2c1ncn2[C@@H]1O[C@H](CSCCCNCc2cccc(-c3ccoc3)c2)[C@@H](O)[C@H]1O         50%
 1  Nc1ncnc2c1ncn2[C@@H]1O[C@H](CSCCOc2ccc(-c3ccncc3)cc2)[C@@H](O)[C@H]1O       < 50%
 2  Nc1ncnc2c1ncn2[C@@H]1O[C@H](CSCCOc2ccc(-c3ccc(O)cc3)cc2)[C@@H](O)[C@H]1O       < 50%
 3  Nc1ncnc2c1ncn2[C@@H]1O[C@H](CSCCNCc2cccc(-c3ccc(O)cc3)c2)[C@@H](O)[C@H]1O         50%
 4  Nc1ncnc2c1ncn2[C@@H]1O[C@H](CSCCNCc2cccc(-c3cccc(F)c3)c2)[C@@H](O)[C@H]1O         50%
 5  Nc1ncnc2c1ncn2[C@@H]1O[C@H](CSCCOc2ccc(-c3ccccc3O)cc2)[C@@H](O)[C@H]1O       < 50%
 6  Nc1ncnc2c1ncn2[C@@H]1O[C@H](CSCCNCc2cccc(-c3ccccc3O)c2)[C@@H](O)[C@H]1O         50%
 7  Nc1ncnc2c1ncn2[C@@H]1O[C@H](CSCCNCc2cccc(-c3ccc(C(F)(F)F)cc3)c2)[C@@H](O)[C@H]1O         50%
 8  N=C(NCCCSC[C@H]1O[C@@H](n2cnc3c(N)ncnc32)[C@H](O)[C@@H]1O)Nc1cccc(-c2ccc(F)nc2)c1       > 90%
 9  Nc1ncnc2c1ncn2[C@@H]1O[C@H](CSCCCNC(=O)NCc2ccc3c(c2)OCO3)[C@@H](O)[C@H]1O         70%
10  Nc1cccc(-c2ccc(CNC(=O)NCCSC[C@H]3O[C@@H](n4cnc5c(N)ncnc54)[C@H](O)[C@@H]3O)cc2)c1         70%
11  N=C(NCCCSC[C@H]1O[C@@H](n2cnc3c(N)ncnc32)[C@H](O)[C@@H]1O)Nc1cccc(-c2cccnc2)c1       > 90%
12  Nc1ncnc2c1ncn2[C@@H]1O[C@H](CSCCCNCc2cccc(-c3ccc(F)c(O)c3)c2)[C@@H](O)[C@H]1O         50%
13  N=C(NCCCSC[C@H]1O[C@@H](n2cnc3c(N)ncnc32)[C@H](O)[C@@H]1O)Nc1cccc(-c2cncnc2)c1       > 90%
14  Nc1ncnc2c1ncn2[C@@H]1O[C@H](CSCCCNCc2cccc(-c3cncnc3)c2)[C@@H](O)[C@H]1O         50%
15  N=C(NCCSC[C@H]1O[C@@H](n2cnc3c(N)ncnc32)[C@H](O)[C@@H]1O)Nc1ccccc1       > 90%
16  N=C(NCCCSC[C@H]1O[C@@H](n2cnc3c(N)ncnc32)[C@H](O)[C@@H]1O)Nc1cccc(-c2ccc(O)cc2)c1       > 90%
17  N=C(NCCCSC[C@H]1O[C@@H](n2cnc3c(N)ncnc32)[C@H](O)[C@@H]1O)Nc1cccc(-c2ccc(Cl)cc2)c1       > 90%
18  N=C(NCCCSC[C@H]1O[C@@H](n2cnc3c(N)ncnc32)[C@H](O)[C@@H]1O)Nc1ccccc1       > 90%
19  Nc1ncnc2c1ncn2[C@@H]1O[C@H](CSCCNCc2cccc(-c3cncnc3)c2)[C@@H](O)[C@H]1O         50%
20  N=C(NCCSC[C@H]1O[C@@H](n2cnc3c(N)ncnc32)[C@H](O)[C@@H]1O)NCc1ccccc1       > 90%
21  Nc1ncnc2c1ncn2[C@@H]1O[C@H](CSCCCNCc2cccc(-c3ccc(O)cc3)c2)[C@@H](O)[C@H]1O         50%
22  Nc1ncnc2c1ncn2[C@@H]1O[C@H](CSCCOc2ccc(-c3cccc(O)c3)cc2)[C@@H](O)[C@H]1O       < 50%
23  N=C(NCCCSC[C@H]1O[C@@H](n2cnc3c(N)ncnc32)[C@H](O)[C@@H]1O)Nc1cccc(-c2ccc(F)cc2F)c1       > 90%
24  N=C(NCCSC[C@H]1O[C@@H](n2cnc3c(N)ncnc32)[C@H](O)[C@@H]1O)Nc1cccc(-c2cccc(F)c2)c1       > 90%
25  N=C(NCCCSC[C@H]1O[C@@H](n2cnc3c(NCCCc4ccccc4)ncnc32)[C@H](O)[C@@H]1O)NC1CCCC1      Active
26  N=C(NCCCSC[C@H]1O[C@@H](n2cnc3c(NCCCc4ccccc4)ncnc32)[C@H](O)[C@@H]1O)Nc1ccccc1      Active
27  N=C(NCCCO)NCCCSC[C@H]1O[C@@H](n2cnc3c(NCCCc4ccccc4)ncnc32)[C@H](O)[C@@H]1O      Active
28  N=C(NCCCSC[C@H]1O[C@@H](n2cnc3c(NCCCc4ccccc4)ncnc32)[C@H](O)[C@@H]1O)NCCCc1ccccc1      Active
29  Nc1ncnc2c1ncn2[C@@H]1O[C@H](CSCCNCc2cccc(-c3cccc4cn[nH]c34)c2)[C@@H](O)[C@H]1O         50%
30  N=C(NCCCSC[C@H]1O[C@@H](n2cnc3c(NCCCc4ccccc4)ncnc32)[C@H](O)[C@@H]1O)NCC1CC1      Active
